// data source = patent US20240252488A1

Molecular target: MLKL (Homo sapiens)
Experiment: MLKL degradation assay in HepG2 cell line (western blot)
Assay type: cell-based
Design: endogenous in cells; host or cells: HepG2 or HaCaT
Settings: compound 1 μM; cell line not given
Method: MLKL degradation ability was evaluated in the following method. […] For protein preparation after incubation, cells were washed with 1×TBST, and 60 μL of RIPA lysis buffer containing Halt™ Protease and Phosphatase Inhibitor Cocktail was dispensed into each well. […] For protein quantification, after dispensing sample and BCA (0-4 mg/ml) in a 96 well plate, 100 μL of BCA was dispensed and reacted in a 37° C. incubator for 30 minutes. […]
reportedProperty: Degradation assay (Degradation %) 1 μM

[
  {
    "compound": "Nc1ncc(-c2cnn(C3CCN(C(=O)CCC4CCN(C(=O)C5CCN(c6ccc7nnn(C8CCC(=O)NC8=O)c(=O)c7c6)CC5)CC4)CC3)c2)nc1C(=O)O[C@@H](C(=O)Nc1ccc(F)cc1)c1ccccc1 (stereo partly drawn) [TDH-436]",
    "Degradation assay (Degradation %) 1 μM": 85.98
  },
  {
    "compound": "Nc1ncc(-c2cnn(C3CCN(CCC4CCN(C(=O)CCc5ccc6c(c5)CN(C5CCC(=O)NC5=O)C6=O)CC4)CC3)c2)nc1C(=O)O[C@@H](C(=O)Nc1ccc(F)cc1)c1ccccc1 (stereo partly drawn) [TDH-475]",
    "Degradation assay (Degradation %) 1 μM": 81.77
  },
  {
    "compound": "Nc1ncc(-c2cnn(C3CCN(C4CC5(CCN(CC6CCN(C(=O)C7CCN(C8=CC(=O)N(C9CCC(=O)NC9=O)C8=O)CC7)CC6)CC5)C4)CC3)c2)nc1C(=O)O[C@@H](C(=O)Nc1ccc(F)cc1)c1ccccc1 (stereo partly drawn) [TDH-528]",
    "Degradation assay (Degradation %) 1 μM": 63.93
  }
]

* * *

test system: FADD−/− Jurkat cells; assay: Necroptosis inhibition assay, TNF-α-induced necroptosis (CellTiter-Glo 2.0); format: cell-based, human; conditions: compound 1 μM; TNF-α 15 ng/mL
reportedProperty: Necroptosis inhibition assay (Rescue %) 1 μM
// units = %; emit number, no label

[
  {
    "compound": "Nc1ncc(-c2cnn(C3CCN(CCCN4CCN(C(=O)CC5CCN(c6ccc7c(c6)C(=O)N(C6CCC(=O)NC6=O)C7=O)CC5)CC4)CC3)c2)nc1C(=O)O[C@@H](C(=O)Nc1ccc(F)cc1)c1ccccc1 (stereo partly shown)",
    "measureUnit": "%",
    "valueMeasured": 48.04
  },
  {
    "compound": "Nc1ncc(-c2ccc(N3CCN(CC4CCN(C(=O)C5CCN(c6ccc7c(c6)C(=O)N(C6CCC(=O)NC6=O)C7=O)CC5)CC4)CC3)nc2)nc1C(=O)OC(C(=O)Nc1ccc(F)cc1)c1ccccc1 (stereo not shown)",
    "measureUnit": "%",
    "valueMeasured": 15.47
  },
  {
    "compound": "Nc1ncc(-c2cnn(C3CN(CC4CCN(C(=O)CNc5cccc6c5C(=O)N(C5CCC(=O)NC5=O)C6=O)CC4)C3)c2)nc1C(=O)OC(C(=O)Nc1ccc(F)cc1)c1ccccc1 (stereo not shown)",
    "measureUnit": "%",
    "valueMeasured": 25.58
  },
  {
    "compound": "Nc1ncc(-c2cnn(C3CCN(C(=O)COC4CCN(C(=O)COc5cccc6c5C(=O)N(C5CCC(=O)NC5=O)C6=O)CC4)CC3)c2)nc1C(=O)O[C@@H](C(=O)Nc1ccc(F)cc1)c1ccccc1 (stereo partly shown)",
    "measureUnit": "%",
    "valueMeasured": 27.21
  },
  {
    "compound": "Nc1ncc(-c2cnn(C3CCN(C(=O)COC4CCN(C(=O)C5CCN(c6cccc7c6C(=O)N(C6CCC(=O)NC6=O)C7=O)CC5)CC4)CC3)c2)nc1C(=O)O[C@@H](C(=O)Nc1ccc(F)cc1)c1ccccc1 (stereo partly shown)",
    "measureUnit": "%",
    "valueMeasured": 53.83
  }
]

-- ask Data request, read-out Necroptosis inhibition assay (Rescue %) 1 μM, for Nc1ncc(-c2cnn(C3CCN(CCOCCOCCNc4ccc5c(c4)C(=O)N(C4CCC(=O)NC4=O)C5=O)CC3)c2)nc1C(=O)O[C@@H](C(=O)Nc1ccc(F)cc1)c1ccccc1 (stereo partly shown)
-- reply 20.17

* * *

target: MLKL (Homo sapiens, UniProt Q8NB16); experiment: MLKL degradation assay in HepG2 cell line (western blot); type: cell-based; set-up: endogenous in cells; host or cells: HepG2 or HaCaT; details: compound 1 μM; cell line not given
reportedProperty: Degradation assay (Degradation %) 1 μM

[
  {
    "molecule": "Nc1ncc(-c2cnn(C3CCN(CC4CCN(CC5CCN(C(=O)c6ccc(C(=O)NC7CCC(=O)NC7=O)cc6)CC5)CC4)CC3)c2)nc1C(=O)O[C@@H](C(=O)Nc1ccc(F)cc1)c1ccccc1 (stereo partly drawn)",
    "targetUnderTest": "MLKL (Homo sapiens, UniProt Q8NB16)",
    "Degradation assay (Degradation %) 1 μM": 70.67
  }
]

P: Nc1ncc(-c2cnn(C3CCN(C(=O)CC4CCN(C(=O)CNc5ccc6nnn(C7CCC(=O)NC7=O)c(=O)c6c5)CC4)CC3)c2)nc1C(=O)O[C@@H](C(=O)Nc1ccc(F)cc1)c1ccccc1 (stereo partly drawn)
Q: Nc1ncc(-c2cnn(C3CCN(CCC4CCN(c5cccc6nnn(C7CCC(=O)NC7=O)c(=O)c56)CC4)CC3)c2)nc1C(=O)OC(C(=O)Nc1ccc(F)cc1)c1ccccc1 (stereo not drawn)
-- ask Hey, between P and Q which has a smaller measured Degradation assay (Degradation %) 1 μM? Identify your selection by its label.
-- reply Q

* * *

molecular target: MLKL (Homo sapiens); test: MLKL degradation assay in HepG2 cell line (western blot); type: cell-based; parameters: endogenous in cells; host or cells: HepG2 or HaCaT; conditions: compound 10 μM; cell line not given
reportedProperty: Degradation assay (Degradation %) 10 μM

[
  {
    "compound": "Nc1ncc(-c2cnn(C3CCN(CCCN4CCN(C(=O)c5ccc(C(=O)NC6CCC(=O)NC6=O)cc5)CC4)CC3)c2)nc1C(=O)O[C@@H](C(=O)Nc1ccc(F)cc1)c1ccccc1 (stereo partly drawn)",
    "measureUnit": "%",
    "Degradation assay (Degradation %) 10 μM": 44.41
  }
]

a: Nc1ncc(-c2cnn([C@@H]3CCN(CCOCCOCCNC(=O)COc4cccc5c4C(=O)N(C4CCC(=O)NC4=O)C5=O)C3)c2)nc1C(=O)OC(C(=O)Nc1ccc(F)cc1)c1ccccc1 (stereo partly drawn)
b: Nc1ncc(-c2cnn([C@H]3CCN(CC4CCN(C(=O)COc5cccc6c5C(=O)N(C5CCC(=O)NC5=O)C6=O)CC4)C3)c2)nc1C(=O)OC(C(=O)Nc1ccc(F)cc1)c1ccccc1 (stereo partly drawn)
-- ask Select one: a or b . Criterion: greater recorded Degradation assay (Degradation %) 10 μM. Identify your selection by its label.
-- reply b

* * *

target: UniProt Q8NB16; assay: MLKL degradation assay in HepG2 cell line (western blot); type: cell-based; set-up: endogenous in cells; host or cells: HepG2 or HaCaT; details: compound 1 μM; cell line not given
reportedProperty: Degradation assay (Degradation %) 1 μM

[
  {
    "molecule": "COc1ccc(C(=O)NCC2CCC(CN3CCC(n4cc(-c5cnc(N)c(C(=O)O[C@@H](C(=O)Nc6ccc(F)cc6)c6ccccc6)n5)cn4)CC3)CC2)cc1N1CCC(=O)NC1=O (stereo partly drawn) [TDH-497]",
    "targetUnderTest": "UniProt Q8NB16",
    "measureUnit": "%",
    "Degradation assay (Degradation %) 1 μM": 73.89
  }
]

a: Nc1ncc(-c2cnn(C3CCN(CCCC4CCN(c5ccc6c(c5)C(=O)N(C5CCC(=O)NC5=O)C6=O)CC4)CC3)c2)nc1C(=O)O[C@@H](C(=O)Nc1ccc(F)cc1)c1ccccc1 (stereo partly drawn) [TDH-481]
b: Nc1ncc(-c2cnn(C3CCN(CC4CCN(C(=O)COc5cccc6c5C(=O)N(C5CCC(=O)NC5=O)C6=O)CC4)CC3)c2)nc1C(=O)N[C@@H](C(=O)Nc1ccc(F)cc1)c1ccccc1 (stereo partly drawn) [TDH-186]
-- ask Hey, between a and b which has a smaller measured Degradation assay (Degradation %) 1 μM? Identify your selection by its label.
-- reply b

* * *

Target: MLKL (Homo sapiens, UniProt Q8NB16)
Sequence (Q8NB16 1-471): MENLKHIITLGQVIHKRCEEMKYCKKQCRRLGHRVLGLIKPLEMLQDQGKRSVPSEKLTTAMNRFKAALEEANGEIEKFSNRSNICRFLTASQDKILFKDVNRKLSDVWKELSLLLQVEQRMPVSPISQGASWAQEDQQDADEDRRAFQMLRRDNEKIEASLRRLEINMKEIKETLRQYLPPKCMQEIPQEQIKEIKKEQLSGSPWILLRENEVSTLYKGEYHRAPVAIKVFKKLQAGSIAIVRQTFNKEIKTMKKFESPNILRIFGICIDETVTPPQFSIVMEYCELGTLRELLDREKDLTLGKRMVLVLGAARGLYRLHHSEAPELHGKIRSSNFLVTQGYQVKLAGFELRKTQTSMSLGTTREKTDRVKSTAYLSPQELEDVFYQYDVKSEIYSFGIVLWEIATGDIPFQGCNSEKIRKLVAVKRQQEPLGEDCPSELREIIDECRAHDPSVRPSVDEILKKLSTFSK
Assay: MLKL degradation assay in HepG2 cell line (western blot)
Assay type: cell-based
Design: endogenous in cells; host or cells: HepG2 or HaCaT
Conditions: compound 10 μM; cell line not given
reportedProperty: Degradation assay (Degradation %) 10 μM

Study these solved cases before continuing.
[
  {
    "molecule": "Nc1ncc(-c2cnn(C3CCN(CC4CCN(CC5CCN(C(=O)C6CN(C7=CC(=O)N(C8CCC(=O)NC8=O)C7=O)C6)CC5)CC4)CC3)c2)nc1C(=O)O[C@@H](C(=O)Nc1ccc(F)cc1)c1ccccc1 (some centres unmarked)",
    "measureUnit": "%",
    "Degradation assay (Degradation %) 10 μM": 29.05
  },
  {
    "molecule": "Nc1ncc(-c2cnn(C3CCN(C(=O)CCC4CCN(C(=O)CNc5ccc6nnn(C7CCC(=O)NC7=O)c(=O)c6c5)CC4)CC3)c2)nc1C(=O)O[C@@H](C(=O)Nc1ccc(F)cc1)c1ccccc1 (some centres unmarked)",
    "measureUnit": "%",
    "Degradation assay (Degradation %) 10 μM": 74.66
  },
  {
    "molecule": "Nc1ncc(-c2cnn(C3CCN(CC4CCN(CC5CCN(C(=O)c6ccc(C(=O)NC7CCC(=O)NC7=O)cc6)CC5)CC4)CC3)c2)nc1C(=O)O[C@@H](C(=O)Nc1ccc(F)cc1)c1ccccc1 (some centres unmarked)",
    "measureUnit": "%",
    "Degradation assay (Degradation %) 10 μM": 89.04
  }
]

1: Nc1ncc(-c2cnn(C3CN(CC4CCN(C(=O)COc5ccc6c(c5)C(=O)N(C5CCC(=O)NC5=O)C6=O)CC4)C3)c2)nc1C(=O)OC(C(=O)Nc1ccc(F)cc1)c1ccccc1 (centres unmarked)
2: Nc1ncc(-c2cnn(C3CCN(CCC4CCN(c5ccc6c(c5)C(=O)N(C5CCC(=O)NC5=O)C6=O)CC4)CC3)c2)nc1C(=O)O[C@@H](C(=O)Nc1ccc(F)cc1)c1ccccc1 (some centres unmarked)
-- ask Hey, between 1 and 2 which has a smaller measured Degradation assay (Degradation %) 10 μM? Identify your selection by its label.
-- reply 2
(2: 34.74%, 1: 89.54%)
